Hello, the source for this data is patent US8957087B2, in case you need it.

Readings of Inhibition rate % on raf kinase for the listed molecules
System: Raf-1(truncated)
Assay: Raf-1 inhibitor screening by chemoluminescence method
Type: biochemical
Conditions: Final concentration 1 x 1.0*10^−5 mol/ml
From the text: 1. Inhibitory activity of the compound of the present invention on raf kinase Raf-1 inhibitor screening by chemoluminescence method Westernblot electrophoresis apparatus Rotaryshaker Raf-1(truncated), Magnesium/ATP Cocktail, MEK1 unactive

Examples from the recorded data:
CNC(=O)c1nc(Oc2ccc(NC(=O)Nc3ccc(Br)c(C(F)(F)F)c3)cc2)c2ccc(F)cc2n1
80.1%
Nc1ccc2c(Oc3ccc(NC(=O)Nc4ccc(Cl)c(C(F)(F)F)c4)cc3)cncc2c1
11.5%

According to the records, this molecule CNC(=O)c1ncc(Oc2ccc(NC(=O)Nc3ccc(F)c(C(F)(F)F)c3)cc2)c2ccc(N)cc12 displays Inhibition rate % on raf kinase of 11.2%

According to the records, this molecule CNC(=O)c1cc(Oc2ccc(NC(=O)Nc3ccc(Cl)c(C(F)(F)F)c3)cc2)ccn1 [Sorafenib, reference compound] displays Inhibition rate % on raf kinase of 85.7%

Entry Cc1cc(Oc2ccc(NC(=O)Nc3ccc(Br)c(C(F)(F)F)c3)cc2)c[nH]1 , Inhibition rate % on raf kinase reported as 16.8%

Notebook: O=C(Nc1ccc(Oc2ncnc3cc(F)ccc23)cc1)Nc1ccc(Cl)c(C(F)(F)F)c1 , Inhibition rate % on raf kinase read as 93.5%

// sample CNC(=O)c1cc(Oc2ccc(NC(=O)Nc3ccc(Br)c(C(F)(F)F)c3)cc2)c2cc(OC)ccc2n1 , its Inhibition rate % on raf kinase was 56.3%

In plain terms, CNC(=O)c1nc(Oc2ccc(NC(=O)Nc3ccc(F)c(C(F)(F)F)c3)cc2)c2ccc(F)cc2n1 has a documented Inhibition rate % on raf kinase of 98.9%

Consider CNC(=O)c1cc(Oc2ccc(NC(=O)Nc3ccc(Cl)c(C(F)(F)F)c3)cc2)c(C)[nH]1 . Its measured Inhibition rate % on raf kinase is 55.0%

###

Each item that follows carries a reported Inhibition rate % on raf kinase.
Test system: Raf-1(truncated)
Assay: Raf-1 inhibitor screening by chemoluminescence method
Type: biochemical
Settings: Final concentration 1 x 1.0*10^−5 mol/ml
Write down the numeric answer in % and omit the unit.

Example results:
CCCNC(=O)c1cc(Oc2ccc(NC(=O)Nc3ccc(Cl)c(OC)c3)c(C(F)(F)F)c2)c2ccc(C(F)(F)F)cc2n1
88.1
CCCNC(=O)c1cc(Oc2ccc(NC(=O)Nc3ccc(Cl)c(OC)c3)c(F)c2)c2ccc(C(F)(F)F)cc2n1
81.5

So for COc1ccc2nccc(Oc3ccc(NC(=O)Nc4ccc(Br)c(C(F)(F)F)c4)cc3)c2c1 , the logged Inhibition rate % on raf kinase turned out to be 34.4

###

The compounds listed here are annotated with their Relative tumor reproduction rate T/C (%).
Tested on: Human colon cancer HT-29 transplantable tumor
Experiment: Human colon cancer HT-29 transplantable tumor in nude mice
Conditions: HT-29 in nude mice, 60 mg/kg ig 9 times
Field format: number, assumed %, no unit text.

Please review the following examples before continuing.
CCCNC(=O)c1cc(Oc2ccc(NC(=O)Nc3ccc(Cl)c(OC)c3)c(F)c2)c2ccc(C(F)(F)F)cc2n1
39.5
Cc1cc(Oc2ccc(NC(=O)Nc3ccc(Cl)c(C(F)(F)F)c3)cc2)c[nH]1
39.1
O=C(Nc1ccc(Oc2ncnc3cc(F)ccc23)cc1)Nc1ccc(F)c(C(F)(F)F)c1
40.1

// Relative tumor reproduction rate T/C (%) lookup, compound = COc1ccc2nccc(Oc3ccc(NC(=O)Nc4ccc(Br)c(C(F)(F)F)c4)cc3)c2c1 , result: 40.2
